Attribution: paper PMC10657439

# target: T1, Fc-tagged Fas (recombinant extracellular domain of Fas with a C-terminal Fc) (human, UniProt P25445 26-173)
# T1 construct: human Fas (CD95) extracellular domain; also called Fas-IgG1 Fc; IgG4-Fc-tagged Fas; source: FreeStyle CHO-S cells, purified (protein A columns); not shown: Fc (IgG4 in the methods, IgG1 in the results), C-terminal, kept
# T1 sequence (looked up): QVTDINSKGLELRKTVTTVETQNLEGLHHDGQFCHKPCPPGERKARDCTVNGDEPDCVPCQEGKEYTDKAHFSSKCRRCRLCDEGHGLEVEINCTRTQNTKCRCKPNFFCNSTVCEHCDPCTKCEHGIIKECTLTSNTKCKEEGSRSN
# procedureSummary: ELISA; Fc-tagged Fas (2 μg/ml) coated on 96-well plates; His-tagged FasL (single or tandem) in 2-fold dilutions from 50 to 0.048 nM, 1 h at 37 °C
# assayConditions: both partners purified
readoutKind: binding result

INSERT INTO results (binder, readoutkind, result) VALUES
  ('His_FasL^WT (N-terminal His-tagged human FasL, wild type) (ligand, linker between the His tag and FasL; also called WT FasL; His-tagged FasL; source: FreeStyle CHO-S cells, transfected, purified (Ni-Sepharose HisTrap); not shown: His7, N-terminal, kept) GGSPSPPPEKKELRKVAHLTGKSNSRSMPLEWEDTYGIVLLSGVKYKKGGLVINETGLYFVYSKVYFRGQSCNNLPLSHKVYMRNSKYPQDLVMMEGKMMSYCTTGQMWARSSYLGAVFNLTSADHLYVNVSELSLVNFEESQTFFGLYKL', 'binding result', 'binds'),
  ('His_FasL^R156G (ALPS mutation) (ligand, human, linker between the His tag and FasL; source: FreeStyle CHO-S cells, transfected, purified (Ni-Sepharose HisTrap); not shown: His7, N-terminal, kept) GGSPSPPPEKKELRKVAHLTGKSNSGSMPLEWEDTYGIVLLSGVKYKKGGLVINETGLYFVYSKVYFRGQSCNNLPLSHKVYMRNSKYPQDLVMMEGKMMSYCTTGQMWARSSYLGAVFNLTSADHLYVNVSELSLVNFEESQTFFGLYKL', 'binding result', 'binds'),
  ('His_FasL^WT-A247E (tandem: wild-type FasL unit and A247E unit) (ligand, human, linker between the His tag and the first FasL unit; linker between the two FasL units; source: CHO expression system, purified (HisTrap Ni Sepharose); not shown: His7, N-terminal, kept) GGSPSPPPEKKELRKVAHLTGKSNSRSMPLEWEDTYGIVLLSGVKYKKGGLVINETGLYFVYSKVYFRGQSCNNLPLSHKVYMRNSKYPQDLVMMEGKMMSYCTTGQMWARSSYLGAVFNLTSADHLYVNVSELSLVNFEESQTFFGLYKLGGGSGGGSGGGSPSPPPEKKELRKVAHLTGKSNSRSMPLEWEDTYGIVLLSGVKYKKGGLVINETGLYFVYSKVYFRGQSCNNLPLSHKVYMRNSKYPQDLVMMEGKMMSYCTTGQMWARSSYLGEVFNLTSADHLYVNVSELSLVNFEESQTFFGLYKL', 'binding result', 'binds');
